Tested on: U251 CNS
Measurement description: NCI-60 one-dose screen, 48 h (100 = growth as untreated, 0 = no growth, -100 = all killed)
Measurement setup: 10 µM unless noted
The panel holds about 83,000 compounds, 20% with a hit somewhere; the sample as a whole holds those more often. The source made the active and inactive calls. How the source made its calls: active means growth percent below 10; inactive means the rest.
Assay endpoint: growth

CCCCCCNC(=O)Oc1ccc(/C(=C(/C)c2ccc(OC)cc2)c2ccc(OCCN3CCCC3)cc2)cc1 = 58.6% (inactive)
CC(=O)NC(C)(C)C(=O)N[C@@H](C)C(=O)NC(C)(C)C(=O)N[C@@H](C)C(=O)NC(C)(C)C(=O)N[C@@H](C)C(=O)N[C@@H](CCC(N)=O)C(=O)NC(C)(C)C(=O)N[C@H](C(=O)NC(C)(C)C(=O)NCC(=O)N[C@@H](CC(C)C)C(=O)NC(C)(C)C(=O)N1CCC[C@H]1C(=O)N[C@H](C(=O)NC(C)(C)C(=O)NC(C)(C)C(=O)N[C@@H](CCC(N)=O)C(=O)N[C@@H](CCC(N)=O)C(=O)N[C@H](CO)CC1CCCCC1)C(C)C)C(C)C = 38.5% [5 µM] (inactive)
O=c1cc(-c2ccccc2)nc2sc(-c3c[nH]c4ccc(Br)cc34)nn12 = 100% (inactive)
C/C(=N\NC(=S)Nc1ccc(Br)cc1)c1cc2ccccc2oc1=O = 17.8% (inactive)
Nc1nc(-c2cccc([N+](=O)[O-])c2)c(N=Nc2cccc(Cl)c2)s1 = 44.3% (inactive)

Input `O=C(NNc1nc2cc(F)cc(F)c2n2cccc12)c1ncccn1` , output reported growth.
14.4% (inactive)

Fill in reported growth for this entry: `O=C(CSc1ccc(-c2nc3ccccc3[nH]2)cn1)N1CCN(c2ccccc2F)CC1`
90.5% (inactive)

Identify measured growth associated with `Cc1cc(O)c2c(c1)C(=O)C(c1c(C)cc3c(c1O)C(=O)C=CC3=O)=CC2=O`
94% (inactive)

Return the recorded growth value; entry: CCOC(=O)/C(F)=C/C1CC1CCc1cccc(C(F)(F)F)c1 (stereo not drawn)
113% (inactive)

Give the reported value of growth for this record: CCN1C(=O)N(CC)C2SC(N/N=C/c3ccc(F)cc3)=NC21 (stereo not drawn)
15% (inactive)

* * *

Test system: OVCAR-8 ovarian
Measurement description: NCI-60 one-dose screen, 48 h
Measurement setup: 10 µM unless noted
Compounds without any hit were thinned out: in the full panel of roughly 83,000, 20% have a hit. Active and inactive are the calls of the source. The calls were made as follows: active = growth percent below 10; inactive = the rest.
Assign a class; possible classes are active, inactive

O=c1c2c(O)cccc2oc2c3c(cc(O)c12)O[C@H]1OC=C[C@@H]31 = inactive

Hi team, can someone confirm the assay call for `CCOC(=O)c1c(NCC(=O)Nc2cccc([N+](=O)[O-])c2)sc2c1CCCC2` ?
active

Please indicate how the test categorized `COc1ccc(-c2nc(SCC(C)C)nc(N/N=C\c3cccc([N+](=O)[O-])c3)c2C#N)cc1` .
inactive

Kindly provide the recorded test outcome for the following molecule: `Cc1ccc(/C=C/c2nn3c(-c4ccco4)nnc3s2)cc1`
inactive

So what was the verdict on `O=C(/C=C/Nc1ccc(S(=O)(=O)O)cc1)c1ccc(F)cc1` in this test?
inactive

What was the test verdict on C[C@@H]1C[C@H]2C(=O)OCC(NC(=O)[C@H](Cc3cc(F)cc(F)c3)NC(=O)Nc3ccc(Cl)cc3F)C(=O)N3CCC[C@H]3C(=O)N3CCCC[C@H]3C(=O)N[C@@H](C)C(=O)N2C1 (some centres not stated) ?
inactive

What classification did `C#C[C@]1(O)CC[C@H]2[C@@H]3CC=C4c5sc(Nc6cc(Cl)ccn6)nc5CC[C@]4(C)[C@H]3CC[C@@]21C` end up with in this test?
inactive
